Sourced from patent EP4711368A1

Reported values of TI for individual entries
System: SD rats
Settings: rat, in vivo
attribute_measured: TI

- molecule: "Cc1cnc2n1-c1ccc(Br)cc1C(c1ccccn1)=NC2CCOC(=O)C1COC1 (centres unmarked)"
  censoring_qualifier: "="
  measurement: 2.7
- molecule: "CN1C(=O)C(CO)N=C(c2ccccn2)c2cc(Br)ccc21 (centres unmarked)"
  censoring_qualifier: ">"
  measurement: 2.0
- molecule: "Cc1cnc2n1-c1ccc(Br)cc1C(c1ccccn1)=NC2CCOC(=O)N(C)C.O=S(=O)(O)c1ccccc1 (centres unmarked) [Compound 156D]"
  censoring_qualifier: ">"
  measurement: 1.5
- molecule: "CC(=O)OCCC1N=C(c2ccccn2)c2cc(Br)ccc2N(C)C1=O (centres unmarked)"
  censoring_qualifier: "="
  measurement: 16
- molecule: "C#CC(C)(C)OC(=O)CCC1N=C(c2ccccn2)c2cc([N+](=O)[O-])ccc2N(C)C1=O (centres unmarked)"
  censoring_qualifier: "="
  measurement: 6.0
- molecule: "CCC(=O)OCC1N=C(c2ccccn2)c2cc(Br)ccc2N(C)C1=O (centres unmarked)"
  censoring_qualifier: "="
  measurement: 8.0
- molecule: "Cc1cnc2n1-c1ccc(Br)cc1C(c1ccccn1)=NC2COC(=O)C(C)C (centres unmarked)"
  censoring_qualifier: "="
  measurement: 15.0
- molecule: "CC(=O)OCCC1N=C(c2ccccn2)c2cc(Br)ccc2-n2c(C)cnc21.O=S(=O)(O)c1ccccc1 (centres unmarked) [Compound 145D]"
  censoring_qualifier: ">"
  measurement: 2.3

---

Test system: SD rats
Conditions: SD, rat, in vivo

- chemical_smiles: "CN1C(=O)N(CC(=O)OC2(C)COC2)N=C(c2ccccn2)c2cc(Br)ccc21"
  tested_target: "SD rats"
  censoring_qualifier: "="
  TI: 3
- chemical_smiles: "Cc1cnc2n1-c1ccc(Br)cc1C(c1ccccn1)=NN2CCOC(=O)C(C)C"
  tested_target: "SD rats"
  censoring_qualifier: "="
  TI: 2.7
- chemical_smiles: "COc1nonc1CCN1N=C(c2ccccn2)c2cc(Br)ccc2N(C)C1=O"
  tested_target: "SD rats"
  censoring_qualifier: ">"
  TI: 2
- chemical_smiles: "CC(C)n1nnc(CCN2N=C(c3ccccn3)c3cc(Br)ccc3N(C)C2=O)n1"
  tested_target: "SD rats"
  censoring_qualifier: "="
  TI: 2
- chemical_smiles: "CCC(C)(C)OC(=O)CN1N=C(c2ccccn2)c2cc(Br)ccc2N(C)C1=O"
  tested_target: "SD rats"
  censoring_qualifier: "="
  TI: 2
- chemical_smiles: "CCOC(=O)CN1N=C(c2ccccn2)C(Br)=CN(C)C1=O"
  tested_target: "SD rats"
  censoring_qualifier: ">"
  TI: 1
- chemical_smiles: "CCn1nnnc1CCN1N=C(c2ccccn2)c2cc(Br)ccc2N(C)C1=O"
  tested_target: "SD rats"
  censoring_qualifier: "="
  TI: 2
- chemical_smiles: "CC[C@@H](C)OC(=O)CN1N=C(c2ccccn2)c2cc(Br)ccc2-n2c(C)cnc21"
  tested_target: "SD rats"
  censoring_qualifier: "="
  TI: 6

---

Tested on: SD rats
Conditions: rat, in vivo
Reported values of TI for individual entries

- compound: "Cc1cnc2n1-c1ccc(Br)cc1C(c1ccccn1)=NC2CCC(=O)OC1COC1 (centres unmarked)"
  censoring_qualifier: ">"
  TI: 1.5
- compound: "CN1C(=O)C(CCO)N=C(c2ccccn2)c2cc(Br)ccc21 (centres unmarked)"
  censoring_qualifier: "="
  TI: 1.6
- compound: "Cc1cnc2n1-c1ccc(Br)cc1C(c1ccccn1)=NC2CCOC(=O)C(C)C (centres unmarked)"
  censoring_qualifier: "="
  TI: 5.0
- compound: "CCC(=O)OCC1N=C(c2ccccn2)c2cc(Br)ccc2-n2c(C)cnc21 (centres unmarked)"
  censoring_qualifier: "="
  TI: 6.0
- compound: "CC(=O)C(C)(C)OC(=O)CCC1N=C(c2ccccn2)c2cc(Br)ccc2N(C)C1=O (centres unmarked)"
  censoring_qualifier: ">"
  TI: 2.4
- compound: "CCOC(=O)CCC1N=C(c2ccccn2)c2cc([N+](=O)[O-])ccc2N(C)C1=O (centres unmarked)"
  censoring_qualifier: ">"
  TI: 2.3
- compound: "COC(=O)CC1N=C(c2ccccn2)c2cc(Br)ccc2N(C)C1=O (centres unmarked)"
  censoring_qualifier: "="
  TI: 2.7
- compound: "CN1C(=O)C(CCC(=O)OC2(C)COC2)N=C(c2ccccn2)c2cc(Br)ccc21 (centres unmarked)"
  censoring_qualifier: ">"
  TI: 2
- compound: "C=CC(C)(C)OC(=O)CCC1N=C(c2cccc[n+]2[O-])c2cc(Br)ccc2N(C)C1=O (centres unmarked)"
  censoring_qualifier: ">"
  TI: 1.5
- compound: "CC(C)OC(=O)CC1N=C(c2ccccn2)c2cc(Br)ccc2N(C)C1=O (centres unmarked)"
  censoring_qualifier: "="
  TI: 40.0
- compound: "Cc1cnc2n1-c1ccc(Br)cc1C(c1ccccn1)=NC2COC(=O)CN(C)C (centres unmarked)"
  censoring_qualifier: "="
  TI: 3.3
- compound: "Cc1cnc2n1-c1ccc(Br)cc1C(c1ccccn1)=NC2CCOC(=O)CCCl (centres unmarked)"
  censoring_qualifier: "="
  TI: 5.5
- compound: "CCC(=O)OCCC1N=C(c2ccccn2)c2cc(Br)ccc2-n2c(C)cnc21 (centres unmarked)"
  censoring_qualifier: "="
  TI: 6.0
- compound: "CCOC(=O)OCCC1N=C(c2ccccn2)c2cc(Br)ccc2-n2c(C)cnc21 (centres unmarked)"
  censoring_qualifier: "="
  TI: 2.0
- compound: "CC(=O)OCCC1N=C(c2ccccn2)c2cc(Br)ccc2-n2c(C)cnc21 (centres unmarked)"
  censoring_qualifier: "="
  TI: 6.0
- compound: "CC(C)OC(=O)CCC1N=C(c2ccccn2)c2cc3nc(C(F)(F)F)sc3cc2N(C)C1=O (centres unmarked)"
  censoring_qualifier: ">"
  TI: 1.0
- compound: "CN1C(=O)C(CCC(=O)OC2COC2)N=C(c2ccccn2)c2cc(Br)ccc21 (centres unmarked)"
  censoring_qualifier: ">"
  TI: 4.5

---

Test system: SD rats
Conditions: SD, rat, in vivo, iv
attribute_measured: MLD (mg/kg)

- compound: "CCOc1cc(CCN2N=C(c3ccccn3)c3cc(Br)ccc3N(C)C2=O)on1 [Compound 271]"
  attribute_measured: "MLD"
  censoring_qualifier: "="
  measurement: 30
- compound: "CCC(CC)OC(=O)CN1N=C(c2ccccn2)c2cc(Br)ccc2N(C)C1=O [Compound 247]"
  attribute_measured: "MLD"
  censoring_qualifier: "="
  measurement: 30
- compound: "CCC(C)OC(=O)CN1N=C(c2ccccn2)c2cc(Br)ccc2N(C)C1=O (stereo not drawn) [Compound 241]"
  attribute_measured: "MLD"
  censoring_qualifier: "="
  measurement: 30
- compound: "CN1C(=O)N(COC(=O)CCCl)N=C(c2ccccn2)c2cc(Br)ccc21 [Compound 290]"
  attribute_measured: "MLD"
  censoring_qualifier: "="
  measurement: 20
- compound: "C#C[C@H](C)OC(=O)CN1N=C(c2ccccn2)c2cc(Br)ccc2N(C)C1=O [Compound 252]"
  attribute_measured: "MLD"
  censoring_qualifier: "="
  measurement: 40
- compound: "CN(C)C(=O)OCCN1N=C(c2ccccn2)c2cc(Br)ccc2N(C)C1=O [Compound 304]"
  attribute_measured: "MLD"
  censoring_qualifier: "="
  measurement: 20
- compound: "CN1C2=NCCN2N=C(c2ccccn2)c2cc(Br)ccc21 [Compound 324]"
  attribute_measured: "MLD"
  censoring_qualifier: ">"
  measurement: 15.7
- compound: "CCn1nnnc1CCN1N=C(c2ccccn2)c2cc(Br)ccc2N(C)C1=O [Compound 264]"
  attribute_measured: "MLD"
  censoring_qualifier: "="
  measurement: 10
- compound: "CN1C(=O)N(CCc2cccs2)N=C(c2ccccn2)c2cc(Br)ccc21 [Compound 284]"
  attribute_measured: "MLD"
  censoring_qualifier: ">"
  measurement: 40
- compound: "C=CC(=O)OCCN1N=C(c2ccccn2)c2cc(Br)ccc2N(C)C1=O [Compound 301]"
  attribute_measured: "MLD"
  censoring_qualifier: "="
  measurement: 27.4
- compound: "Cc1cnc2n1-c1ccc(Br)cc1C(c1ccccn1)=NN2CC(=O)OC1(C)COC1 [Compound 314]"
  attribute_measured: "MLD"
  censoring_qualifier: "="
  measurement: 40
- compound: "C=CC1(OC(=O)CCN2N=C(c3ccccn3)c3cc(Br)ccc3N(C)C2=O)COC1 [Compound 262]"
  attribute_measured: "MLD"
  censoring_qualifier: ">"
  measurement: 20
- compound: "CC(C)C(C)OC(=O)CN1N=C(c2ccccn2)c2cc(Br)ccc2N(C)C1=O (stereo not drawn) [Compound 249]"
  attribute_measured: "MLD"
  censoring_qualifier: "="
  measurement: 20
- compound: "CN(C)C(=O)CN1N=C(c2ccccn2)c2cc(Br)ccc2N(C)C1=O [Compound 258]"
  attribute_measured: "MLD"
  censoring_qualifier: "="
  measurement: 40
- compound: "CC(C)C(=O)OCN1N=C(c2ccccn2)c2cc(Br)ccc2N(C)C1=O [Compound 287]"
  attribute_measured: "MLD"
  censoring_qualifier: "="
  measurement: 30
- compound: "CCC(=O)CN1N=C(c2ccccn2)c2cc(Br)ccc2N(C)C1=O [Compound 281]"
  attribute_measured: "MLD"
  censoring_qualifier: "="
  measurement: 40
- compound: "CC[C@H](C)OC(=O)CN1N=C(c2ccccn2)c2cc(Br)ccc2N(C)C1=O [Compound 242]"
  attribute_measured: "MLD"
  censoring_qualifier: "="
  measurement: 30
- compound: "CC(C)N(C)C(=O)OCN1N=C(c2ccccn2)c2cc(Br)ccc2N(C)C1=O [Compound 293]"
  attribute_measured: "MLD"
  censoring_qualifier: "="
  measurement: 20
